Target: Sentrin-specific protease 8 (Homo sapiens);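 note: luminescence read-out of SENP8 inhibition, dose-response confirmation following an ultra-high-throughput screen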
Sequence (Q96LD8 whole entry): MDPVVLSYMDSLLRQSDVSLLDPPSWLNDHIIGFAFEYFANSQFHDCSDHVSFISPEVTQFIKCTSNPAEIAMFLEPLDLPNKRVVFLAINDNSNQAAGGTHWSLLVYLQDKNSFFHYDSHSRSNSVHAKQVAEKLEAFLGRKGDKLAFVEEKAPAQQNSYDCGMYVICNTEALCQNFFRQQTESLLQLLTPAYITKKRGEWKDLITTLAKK
Assay type: functional
The source made the active and inactive calls.
Give one outcome, nothing more. List: active, inactive

Study these solved cases before continuing.
INSERT INTO measurements (compound, class_assignment) VALUES
  ('O=C(CCCN1C(=O)/C(=C/c2cccc(Br)c2)SC1=S)N1CCOCC1', 'active'),
  ('CCOc1ccc(/C=N/NC(=O)c2ccc(Cn3cc(Br)cn3)o2)cc1', 'active'),
  ('COc1cc2c(cc1OC)-c1c(OC)c(OC)cc3c1C(C2)N(C)CC3 (configuration not stated)', 'active'),
  ('COc1ccc(COc2ccc3c(C)cc(=O)oc3c2)cc1', 'active'),
  ('COc1cc(OC)c(NC2=CC(=O)C(=O)c3ccccc32)cc1Cl', 'active'),
  ('O=C1/C(=C\c2ccc(O)cc2)SC(=S)N1Cc1ccccc1', 'active');

# input for lookup
Identify the outcome logged in this assay for the compound shown: COc1ccc(C(=O)Nc2ccc3ccccc3n2)c(OC)c1OC
inactive
